targetDesc: ENPP-1 ECD (Homo sapiens (Human))
Sequence (P22413 98-925): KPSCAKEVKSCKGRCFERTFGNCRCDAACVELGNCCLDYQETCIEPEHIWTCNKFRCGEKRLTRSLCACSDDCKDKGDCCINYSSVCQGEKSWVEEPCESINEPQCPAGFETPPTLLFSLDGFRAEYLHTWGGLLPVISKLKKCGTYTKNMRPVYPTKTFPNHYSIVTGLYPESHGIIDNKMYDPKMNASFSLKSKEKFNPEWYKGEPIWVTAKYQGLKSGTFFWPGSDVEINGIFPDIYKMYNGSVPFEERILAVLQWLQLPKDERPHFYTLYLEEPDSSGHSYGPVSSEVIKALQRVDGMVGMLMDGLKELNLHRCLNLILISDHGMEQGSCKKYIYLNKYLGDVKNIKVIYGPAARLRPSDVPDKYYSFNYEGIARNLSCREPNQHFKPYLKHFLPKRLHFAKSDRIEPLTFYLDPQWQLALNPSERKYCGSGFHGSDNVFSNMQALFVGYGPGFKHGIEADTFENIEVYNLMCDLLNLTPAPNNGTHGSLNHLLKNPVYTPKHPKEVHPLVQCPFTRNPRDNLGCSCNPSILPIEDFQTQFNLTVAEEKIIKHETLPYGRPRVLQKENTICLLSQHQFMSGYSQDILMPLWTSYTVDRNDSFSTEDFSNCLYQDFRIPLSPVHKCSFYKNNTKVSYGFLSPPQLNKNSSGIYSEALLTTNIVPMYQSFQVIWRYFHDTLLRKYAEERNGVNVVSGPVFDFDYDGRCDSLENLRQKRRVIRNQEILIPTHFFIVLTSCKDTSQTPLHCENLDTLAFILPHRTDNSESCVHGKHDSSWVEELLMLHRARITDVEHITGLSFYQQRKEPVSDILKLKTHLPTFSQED
experimentSummary: Assay 2: inhibition of ENPP1 hydrolysis of 2′,3′-cGAMP (AMP-Glo, […] enzyme)
assayConditions: Assay 2 (KI), inhibition of ENPP1 hydrolysis of 2′,3′-cGAMP; no unit in Table 18 (Table 17 legend for this assay uses nM)
Field: Ki. Provide a value for each of the compounds that follow.
Answers are plain numbers, in nM.

// solved cases for Ki follow
[[record]]
compound = "COc1cc2nccc(N3CC4(CC(CS(C)(=N)=O)C4)C3)c2cc1OC (stereo not drawn) [Compound 186]"
valuemeasured = 0.38

[[record]]
compound = "COc1cc2ncnc(Oc3ccc(S(C)(=N)=O)cc3)c2cc1OC (stereo not drawn) [Compound 18]"
valuemeasured = 24

[[record]]
compound = "CS(=N)(=O)c1ccc(Oc2cnnc3ccccc23)cc1 (stereo not drawn) [Compound 22]"
valuemeasured = 310


Provide reported Ki for each item, in the same order as listed.
1. COc1cccc2c(Oc3ccc(S(C)(=N)=O)cc3)ncnc12 (stereo not drawn) [Compound 84]
2. COc1ccc2c(-c3ccc4c(c3)CN(S(C)(=N)=O)CC4)ccnc2c1 (stereo not drawn) [Compound 52]

Output line:
[210, 6.3]
